Test system: Saccharomyces cerevisiae;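 further: PSI is a weighted mean of sequencing reads over stability bins, variants kept only with over 10 reads, mCherry proximal and sfGFP distal, peptide attached via GGGS linker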
method.summary: protein stability index of tFT-peptide fusion (C-terminal peptide) (PSI (0-1 scale)); higher = more stable (slower turnover)
measurement.context: genetic background: wild type; temperature: 30 C

biosequence	protein stability index
FPPIDLPPPSPS	0.687
VPKRLLSFDQGG	0.68
RRAGHYHYSVRL	0.704
EWNKMTKEKNVI	0.686
RTWNSIESRKIK	0.706
IGCTRSREESRE	0.689
KIQGGKQKTVDD	0.824
DSNLAVHRWYIS	0.573
PSPPPSSAPYPS	0.609
RYLDPPLPLPRT	0.692
FVVGFVCSMVWG	0.144
LHSRKSDFSVIA	0.656
CSDRRVAGGRGG	0.676
NTMVPPTGSGNA	0.732
TFCPPSRYRPRA	0.709
PLRSTYPSLLLP	0.691
PARTPSPPAPSH	0.657
GTRPSPPSRLVS	0.677
ILTALRNQPFLM	0.669
RNHHPHHVPTSR	0.667
FRVFYSFLLCLS	0.22
YCGSVCRPYSYL	0.695
IAGKAIKNMTRR	0.676
LIYKRQPAFRCG	0.632
FSIRALGSLGVF	0.693
PPPPPFLPPPRL	0.749
GPRPATTSPLPT	0.721
PGPGNGHTKRTR	0.654
LTLPLFPPPCSV	0.648

Values compiled from the supplement of paper PMC10724198.
